Source of measurements: paper PMC7889647

molecular target: UniProt:Q12809
Sequence (Q12809 whole entry): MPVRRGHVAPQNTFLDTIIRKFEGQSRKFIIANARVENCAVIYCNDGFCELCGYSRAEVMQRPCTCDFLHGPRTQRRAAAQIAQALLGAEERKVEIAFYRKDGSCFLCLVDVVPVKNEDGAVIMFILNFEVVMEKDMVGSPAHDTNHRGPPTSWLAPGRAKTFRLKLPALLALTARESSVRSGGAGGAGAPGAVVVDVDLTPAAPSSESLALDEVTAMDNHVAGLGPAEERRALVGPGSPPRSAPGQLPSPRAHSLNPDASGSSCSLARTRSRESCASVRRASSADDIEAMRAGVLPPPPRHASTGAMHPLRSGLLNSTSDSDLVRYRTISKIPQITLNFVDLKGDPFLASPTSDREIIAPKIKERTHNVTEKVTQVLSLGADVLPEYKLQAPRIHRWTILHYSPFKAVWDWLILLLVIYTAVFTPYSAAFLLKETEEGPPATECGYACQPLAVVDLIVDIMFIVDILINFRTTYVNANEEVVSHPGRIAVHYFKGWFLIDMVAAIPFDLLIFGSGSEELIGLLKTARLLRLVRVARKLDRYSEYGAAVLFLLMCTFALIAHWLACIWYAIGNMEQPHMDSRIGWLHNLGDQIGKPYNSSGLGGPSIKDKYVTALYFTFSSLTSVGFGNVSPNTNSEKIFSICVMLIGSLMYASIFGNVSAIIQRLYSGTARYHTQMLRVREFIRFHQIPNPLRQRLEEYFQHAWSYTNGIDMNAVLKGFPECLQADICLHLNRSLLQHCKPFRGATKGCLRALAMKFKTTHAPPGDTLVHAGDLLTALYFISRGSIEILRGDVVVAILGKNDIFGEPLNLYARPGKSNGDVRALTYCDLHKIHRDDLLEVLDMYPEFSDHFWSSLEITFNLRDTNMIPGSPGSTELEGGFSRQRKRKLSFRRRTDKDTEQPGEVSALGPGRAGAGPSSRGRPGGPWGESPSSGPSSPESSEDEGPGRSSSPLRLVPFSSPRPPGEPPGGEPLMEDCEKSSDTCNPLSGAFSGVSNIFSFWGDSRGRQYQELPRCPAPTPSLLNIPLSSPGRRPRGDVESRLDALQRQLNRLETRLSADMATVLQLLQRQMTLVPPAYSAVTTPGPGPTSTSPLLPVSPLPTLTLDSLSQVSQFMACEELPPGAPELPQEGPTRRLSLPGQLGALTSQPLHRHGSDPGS

# compound.smiles, unit.label, IC50
data = [
    ("N#Cc1ccc(C(c2ccc(C#N)cc2)n2cncn2)cc1", "nM", 373),
]
